B1: FAM189A2 (parent)
chain: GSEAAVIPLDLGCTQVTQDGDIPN

- Variants of: B1
- assayOverview: protein stability index of a GFP-peptide fusion (GPS, HEK-293T) (PSI 1-6); higher = more stable;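 also: lentivirally expressed fusions sorted by FACS into six bins by GFP to DsRed ratio, PSI derived from sequencing read proportions per bin multiplied by bin number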
- studyConditions: c terminus: a fixed tail appended
Reported values of protein stability index for individual entries
outcomeMeasure: protein stability index

[[record]]
sequencechain = "GSEAAVIPLDLGCTQVTVDGDIPN [Q18V]"
outcomemeasure = "protein stability index"
testresult = 4.92

[[record]]
sequencechain = "GSEAAVIPLDLICTQVTQDGDIPN [G12I]"
outcomemeasure = "protein stability index"
testresult = 4.96

[[record]]
sequencechain = "GSEAAVIPLDLGCTQVTQDGDMPN [I22M]"
outcomemeasure = "protein stability index"
testresult = 5.08

[[record]]
sequencechain = "GSEAAVIPLDLGCTQVTQDVDIPN [G20V]"
outcomemeasure = "protein stability index"
testresult = 4.97

